Each entry below lists one item and its recorded Kinetics kon value.
target: IGF2 (Homo sapiens, UniProt P01344); assay: SPR (Biacore T200) of recombinant IGF2R domain 11 mutants on immobilised biotinylated IGF2; format: binding; set-up: purchased GroPep; conditions: Table 4; MES-EP pH 6.5
Sequence (P01344 25-91): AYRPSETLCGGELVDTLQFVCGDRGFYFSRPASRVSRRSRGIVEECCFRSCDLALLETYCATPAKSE
test_readout: Kinetics kon (M⁻¹ s⁻¹)

INSERT INTO assay_data (molecule, numeric_result) VALUES
  ('AB3 Q1569R P1597H S1602H G1603K: domain 11 AB3 + Q1569R, P1597H, S1602H, G1603K (protein) MKSNEHDDCQVTNPSTGHLFDLSSLSGRAGFTAAYSKSGVVYMSICGENENCPPGVGACFGRTRISVGKANKRLRYVDQVLQLVYKDGSHCPSKHKLSYKSVISFVCRPEAGPTNRPMLISLDKQTCTLFFSWHTPLACEQATECSV', '2.43e+07'),
  ('WT: wild-type human IGF2R domain 11 (residues 1511-1650), AB loop YSEKGL (protein) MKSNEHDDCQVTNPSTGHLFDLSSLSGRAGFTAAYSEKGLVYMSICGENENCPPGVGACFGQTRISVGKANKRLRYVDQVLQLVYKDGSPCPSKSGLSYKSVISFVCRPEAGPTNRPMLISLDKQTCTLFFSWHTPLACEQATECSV', '2.68e+06'),
  ('AB5 Q1569R P1597H G1603K: domain 11 AB5 + Q1569R, P1597H, G1603K (protein) MKSNEHDDCQVTNPSTGHLFDLSSLSGRAGFTAAYAKGWGVYMSICGENENCPPGVGACFGRTRISVGKANKRLRYVDQVLQLVYKDGSHCPSKSKLSYKSVISFVCRPEAGPTNRPMLISLDKQTCTLFFSWHTPLACEQATECSV', '7.54e+06'),
  ('AB3 Q1569R P1597H S1602H: domain 11 AB3 + Q1569R, P1597H, S1602H (protein) MKSNEHDDCQVTNPSTGHLFDLSSLSGRAGFTAAYSKSGVVYMSICGENENCPPGVGACFGRTRISVGKANKRLRYVDQVLQLVYKDGSHCPSKHGLSYKSVISFVCRPEAGPTNRPMLISLDKQTCTLFFSWHTPLACEQATECSV', '1.61e+07');
